Biological target: KRT79; also: reference of the scale not given here
Experiment: pooled miR-30 sensor sort-seq; sequence = guide strand
Details: shRNA
Measured Endpoint: sensor-assay potency score (higher = more potent)
Answers are plain numbers.

# Chain, Assay Result
records = [
    ("TTCTCTGCAGCAGTGTGCTTGT", -0.0157),
    ("TTAACCTTCCCTCCCATCCTAC", -1.2),
    ("TTTGTGGAGTATGTTTGCCGAG", -0.673),
    ("TTGATTTCATCCTCGTACTTGT", 0.185),
]

For each of the items listed, what is its sensor-assay potency score (higher = more potent)?
1. TTCATCCTCGTACTTGTTCTTG
2. ATTTGTGCTGAATCCACCCTTG
3. TTGCCAGTCACAGAAATGCTGA
4. TCGCTCTCCAGAAGCTTGCGGT

1. -0.726
2. 0.32
3. -0.931
4. -0.966

I would be grateful if you could share the reported sensor-assay potency score (higher = more potent) for `TTGACCGTAGTGGTCTTCCGCA` .
-0.477
